biological target: Polyunsaturated fatty acid 5-lipoxygenase (Homo sapiens, UniProt P09917); experiment: Inhibition of 5-LOX in A23187-stimulated human blood PMNL assessed as reduction in lipoxygenase products formation in presence of arachidonic acid pre-incubated for 15 mins followed by stimulation with A23187 for 10 mins by RP-HPLC based cell based assay
observed-property: IC50

Solved cases (5 shown):
[
  {
    "smiles-notation": "CCCCCCCCCCC1=C(OC)C(OC)=CC(=O)C1=O",
    "system-tested": "Polyunsaturated fatty acid 5-lipoxygenase (Homo sapiens, UniProt P09917)",
    "IC50": "0.07 µM"
  },
  {
    "smiles-notation": "CCCCCCC1=C(O)C(=O)C=C(O)C1=O",
    "system-tested": "Polyunsaturated fatty acid 5-lipoxygenase (Homo sapiens, UniProt P09917)",
    "IC50": "> 10 µM"
  },
  {
    "smiles-notation": "CCCCCCCCCCCCCCCC1=C(OC)C(=O)C=C(OC)C1=O",
    "system-tested": "Polyunsaturated fatty acid 5-lipoxygenase (Homo sapiens, UniProt P09917)",
    "IC50": "0.86 µM"
  },
  {
    "smiles-notation": "CCCCCCCCCCCCCCCC1=C(OC)C(OC)=CC(=O)C1=O",
    "system-tested": "Polyunsaturated fatty acid 5-lipoxygenase (Homo sapiens, UniProt P09917)",
    "IC50": "> 10 µM"
  },
  {
    "smiles-notation": "CCCCCCCCCCCC1=C(O)C(=O)C=C(O)C1=O",
    "system-tested": "Polyunsaturated fatty acid 5-lipoxygenase (Homo sapiens, UniProt P09917)",
    "IC50": "3.5 µM"
  }
]

Fill in the blank: the reported IC50 of CCCCCCCCCCC1=C(O)C(=O)C=C(O)C1=O is ____.
7.1 µM

###

molecular target: UniProt P09917; assay: Inhibition of 5-LOX in A23187-stimulated human blood PMNL assessed as reduction in lipoxygenase products formation in presence of arachidonic acid pre-incubated for 15 mins followed by stimulation with A23187 for 10 mins by RP-HPLC based cell based assay
Entries and their pIC50 values follow.
API: returns pIC50 as number; meaning -log10 of concentration in mol/L.

Solved cases (5 shown):
[
  {
    "smiles-notation": "CCCCCCCCCCCCC1=C(OC)C(OC)=CC(=O)C1=O",
    "system-tested": "UniProt P09917",
    "endpoint-value": 6.82
  },
  {
    "smiles-notation": "CCCCCCC1=C(OC)C(=O)C=C(OC)C1=O",
    "system-tested": "UniProt P09917",
    "endpoint-value": 5.85
  },
  {
    "smiles-notation": "CCCCCCCCCCCCC1=C(O)C(=O)C=C(O)C1=O",
    "system-tested": "UniProt P09917",
    "endpoint-value": 5.41
  },
  {
    "smiles-notation": "CCCCCCCCCCCCCCCC1=C(O)C(=O)C=C(OC)C1=O",
    "system-tested": "UniProt P09917",
    "endpoint-value": 6.07
  },
  {
    "smiles-notation": "CCCCCCCCCCCCC1=C(OC)C(=O)C=C(OC)C1=O",
    "system-tested": "UniProt P09917",
    "endpoint-value": 6.31
  }
]

Fill in the blank: the reported pIC50 of COC1=CC(=O)C(O)=C(C/C=C(\C)CC/C=C(\C)CCC=C(C)C)C1=O is ____.
5.62

Try this molecule too: CCCCCCCCC1=C(OC)C(=O)C=C(OC)C1=O
6.24

Try this molecule too: COC1=CC(=O)C(OC)=C(C/C=C(\C)CC/C=C(\C)CCC=C(C)C)C1=O
5.92

Try this molecule too: CCCCCCCCCCCCC1=C(O)C(=O)C=C(OC)C1=O
5.96

Try this molecule too: CCCCCCC1=C(OC)C(OC)=CC(=O)C1=O
6.00

Try this molecule too: CCCCCCCCCCCCCC1=C(OC)C(=O)C=C(OC)C1=O
6.51

Try this molecule too: CCCCCCCCCCCCCCC1=C(OC)C(=O)C=C(OC)C1=O
5.85

Try this molecule too: CCCCCCCCCCCCCC1=C(O)C(=O)C=C(O)C1=O
5.33

Try this molecule too: CCCCC1=C(OC)C(=O)C=C(OC)C1=O
5.10

Try this molecule too: CCCCC1=C(OC)C(OC)=CC(=O)C1=O
5.29

###

target: Polyunsaturated fatty acid 5-lipoxygenase (Homo sapiens, UniProt P09917); test: Inhibition of human recombinant 5-LOX expressed in Escherichia coli BL21 incubated for 10 mins in presence of arachidonic acid by RP-HPLC based cell-free assay
Checkbox rule: IC50 lower than 2000 nM = 1; IC50 not lower than 2000 nM = 0.

Below, 4 molecules whose answers are already recorded.
[
  {
    "smiles-notation": "CCCCCCCCCCCC1=C(O)C(=O)C=C(O)C1=O",
    "assigned-label": 1
  },
  {
    "smiles-notation": "CCCCCCCCCCC1=C(O)C(=O)C=C(O)C1=O",
    "assigned-label": 1
  },
  {
    "smiles-notation": "CCCCC1=C(OC)C(=O)C=C(OC)C1=O",
    "assigned-label": 0
  },
  {
    "smiles-notation": "CCCCCCCCC1=C(O)C(=O)C=C(O)C1=O",
    "assigned-label": 1
  }
]

Bench note: check whether CCCCCCCCCCCC1=C(O)C(=O)C=C(OC)C1=O shows IC50 below 2000 nM
0

Try this molecule too: CCCCCCCCCCC1=C(OC)C(=O)C=C(OC)C1=O
1

Try this molecule too: CCCCCCCCC1=C(OC)C(=O)C=C(OC)C1=O
1

Try this molecule too: COC1=CC(=O)C(OC)=C(C/C=C(\C)CCC=C(C)C)C1=O
0

Try this molecule too: CCCCCCC1=C(O)C(=O)C=C(OC)C1=O
0

Try this molecule too: CCCCC1=C(OC)C(OC)=CC(=O)C1=O
0

Try this molecule too: CCCCCCCCCCCCCCCC1=C(O)C(=O)C=C(OC)C1=O
1

Try this molecule too: CCCCCCCCCCCCCCC1=C(O)C(=O)C=C(O)C1=O
1

###

molecular target: UniProtKB P09917; experiment: Inhibition of 5-LOX in A23187-stimulated human blood PMNL assessed as remaining activity by measuring lipoxygenase products formation at 10 uM pre-incubated for 15 mins followed by stimulation with A23187 for 10 mins by RP-HPLC based cell based assay
Everything with Activity lower than 90% is False; everything else, including exactly 90%, is True.

[
  {
    "smiles-notation": "CCCCCCCCC1=C(O)C(=O)C=C(OC)C1=O",
    "system-tested": "UniProtKB P09917",
    "assigned-label": "False"
  },
  {
    "smiles-notation": "CCCCC1=C(O)C(=O)C=C(O)C1=O",
    "system-tested": "UniProtKB P09917",
    "assigned-label": "True"
  },
  {
    "smiles-notation": "CCCCC1=C(O)C(=O)C=C(OC)C1=O",
    "system-tested": "UniProtKB P09917",
    "assigned-label": "False"
  }
]

Record CCCCCCCCC1=C(O)C(=O)C=C(O)C1=O ; criterion: Activity no lower than 90%. Met?
False

Try this compound too: CC(C)=CCC/C(C)=C/CC/C(C)=C/CC1=C(O)C(=O)C=C(O)C1=O
False

Try this compound too: CCCCCCCCCCCCCCCCC1=C(OC)C(=O)C=C(OC)C1=O
False

Try this compound too: CC(C)=CCC/C(C)=C/CC1=C(O)C(=O)C=C(O)C1=O
True

Try this compound too: CCCCCCC1=C(O)C(=O)C=C(O)C1=O
True

Try this compound too: CCCCCCC1=C(O)C(=O)C=C(OC)C1=O
False

Try this compound too: CCCCCCCCCCCCCCCC1=C(OC)C(OC)=CC(=O)C1=O
False

###

Entries and their Activity values follow.
molecular target: Polyunsaturated fatty acid 5-lipoxygenase (Homo sapiens) (UniProt P09917); test: Inhibition of 5-LOX in A23187-stimulated human blood PMNL assessed as remaining activity by measuring lipoxygenase products formation at 10 uM in presence of arachidonic acid pre-incubated for 15 mins followed by stimulation with A23187 for 10 mins by RP-HPLC based cell based assay
Sequence (P09917 whole entry): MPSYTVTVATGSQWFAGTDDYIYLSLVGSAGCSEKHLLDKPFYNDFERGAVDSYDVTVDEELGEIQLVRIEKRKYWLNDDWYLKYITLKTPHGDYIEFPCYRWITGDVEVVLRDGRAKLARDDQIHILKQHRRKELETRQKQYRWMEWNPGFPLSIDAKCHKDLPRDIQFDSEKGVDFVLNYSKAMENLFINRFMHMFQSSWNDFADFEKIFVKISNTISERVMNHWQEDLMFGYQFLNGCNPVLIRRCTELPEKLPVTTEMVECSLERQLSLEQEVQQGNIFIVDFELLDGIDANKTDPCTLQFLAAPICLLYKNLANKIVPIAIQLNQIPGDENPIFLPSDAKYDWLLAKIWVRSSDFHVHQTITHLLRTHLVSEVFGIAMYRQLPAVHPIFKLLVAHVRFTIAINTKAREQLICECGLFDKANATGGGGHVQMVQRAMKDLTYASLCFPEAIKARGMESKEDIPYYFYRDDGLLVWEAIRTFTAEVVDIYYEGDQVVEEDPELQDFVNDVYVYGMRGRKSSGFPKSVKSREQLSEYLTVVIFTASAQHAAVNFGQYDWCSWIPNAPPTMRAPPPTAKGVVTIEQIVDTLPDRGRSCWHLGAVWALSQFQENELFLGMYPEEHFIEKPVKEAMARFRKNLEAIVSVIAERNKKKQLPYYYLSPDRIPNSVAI

Solved cases (5 shown):
[
  {
    "smiles-notation": "CCCCC1=C(O)C(=O)C=C(O)C1=O",
    "Activity": "92.8%"
  },
  {
    "smiles-notation": "COC1=CC(=O)C(O)=C(C/C=C(\\C)CCC=C(C)C)C1=O",
    "Activity": "65.9%"
  },
  {
    "smiles-notation": "CCCCCCC1=C(O)C(=O)C=C(O)C1=O",
    "Activity": "79.9%"
  },
  {
    "smiles-notation": "CCCCCCCCCCCCCCCCC1=C(O)C(=O)C=C(O)C1=O",
    "Activity": "80.5%"
  },
  {
    "smiles-notation": "CCCCCCCCCCCCCCCC1=C(O)C(=O)C=C(O)C1=O",
    "Activity": "61.7%"
  }
]

Next compound, please.
Fill in the blank: the reported Activity of CC(C)=CCC/C(C)=C/CC1=C(O)C(=O)C=C(O)C1=O is ____.
81.9%

Data provenance: ChEMBL document CHEMBL3414543
